Just for reference, ChEMBL document CHEMBL1136961 is where these values come from.

Please respond with reported pIC50 for every item in the list.
test system: Human papillomavirus type 16; experiment: Antiviral activity against HPV-16 infected in human W12-20850 cells after 4 days by non-radioactive hybrid capture technique; assay type: functional, organism-based, Human papillomavirus 16; conditions: Human papillomavirus 16, W12-20850, 96 h
Numbers only, as −log10 of the molar value.

Molecule	Target or test system	Measurement type	Recorded result
c1ccc(CNC2CCCc3c2[nH]c2ccccc32)cc1 (racemic)	Human papillomavirus type 16	pIC50	5.17
COc1ccc2[nH]c3c(c2c1)CCCC3NCc1ccccc1 (racemic)	Human papillomavirus type 16	pIC50	5.12
Cc1ccc2[nH]c3c(c2c1)CCCC3NC(C)c1ccccc1 (racemic)	Human papillomavirus type 16	pIC50	6.27

--- query ---
Please tell me: pIC50 of Brc1ccc2[nH]c3c(c2c1)CCCC3NCc1ccccc1 (racemic) , system Human papillomavirus type 16? 6.82
